target: Neuraminidase (Influenza A virus, UniProt B4URF0); assay: Inhibition of Influenza A virus (A/chicken/Sandong/Li/2008(H9N2)) neuraminidase N2 using 4-MU-NANA as substrate after 5 mins by fluorescence assay
READOUT NAME: pIC50
// pIC50: -log10(molar conc.)

O=C(/C=C/c1ccc(O)c(O)c1)NCCC[C@H](NC(=O)c1ccccc1)C(=O)O : 4.43
CC(C)C(=O)N[C@@H](CCCNC(=O)/C=C/c1ccc(O)c(O)c1)C(=O)O : 4.52
O=C(O)CNC(=O)/C=C/c1ccc(O)c(O)c1 : 4.36

Give Neuraminidase (Influenza A virus, UniProt B4URF0) pIC50 for CCC(CC)C(=O)Nc1cc(NC(=O)/C=C/c2ccc(O)c(O)c2)ccc1OCC(=O)O
5.14

Give Neuraminidase (Influenza A virus, UniProt B4URF0) pIC50 for CCC(CC)C(=O)Nc1cc(NC(=O)/C=C/c2ccc(O)c(O)c2)ccc1O
4.68

Give Neuraminidase (Influenza A virus, UniProt B4URF0) pIC50 for O=C(/C=C/c1ccc(O)c(O)c1)NCCC[C@H](NC(=O)Cc1ccccc1)C(=O)O
4.55

Give Neuraminidase (Influenza A virus, UniProt B4URF0) pIC50 for CC(C)[C@H](NC(=O)/C=C/c1ccc(O)c(O)c1)C(=O)O
4.43

---

target: Neuraminidase (Influenza A virus); test: Inhibition of Influenza A virus H1N1 neuraminidase
READOUT NAME: IC50 (µM)
Write the number in µM without appending the unit.

Would you kindly share the measured IC50 for COc1cc(O)ccc1C(=O)/C=C/c1ccc(O)cc1 ?
24.3

---

target: Neuraminidase (Influenza A virus) (UniProt B4URF0); assay: Inhibition of Influenza A virus H1N1 A/duck/China/QJ/01 neuraminidase N1 using 4-MU-NANA as substrate at 100 uM after 5 mins by fluorescence assay
Sequence (B4URF0 as listed by the source): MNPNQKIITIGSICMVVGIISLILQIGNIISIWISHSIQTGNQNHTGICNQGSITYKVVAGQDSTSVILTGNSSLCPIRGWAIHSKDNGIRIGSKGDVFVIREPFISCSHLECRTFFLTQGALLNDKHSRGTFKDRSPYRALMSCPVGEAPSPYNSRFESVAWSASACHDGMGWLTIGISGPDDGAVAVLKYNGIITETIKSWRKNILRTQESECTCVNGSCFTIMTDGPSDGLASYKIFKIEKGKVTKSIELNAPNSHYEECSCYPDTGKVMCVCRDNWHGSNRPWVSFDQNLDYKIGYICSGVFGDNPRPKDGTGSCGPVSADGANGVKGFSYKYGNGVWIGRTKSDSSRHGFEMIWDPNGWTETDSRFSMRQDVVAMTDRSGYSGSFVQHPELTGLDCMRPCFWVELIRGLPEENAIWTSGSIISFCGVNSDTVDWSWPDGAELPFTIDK
Form field: inhibition (one value per entry).

Consider the worked cases shown below.
CCC(=O)Nc1cc(NC(=O)/C=C/c2ccccc2)ccc1O : 42.9%
CCC(CC)C(=O)Nc1cc(NC(=O)/C=C/c2ccccc2)ccc1O : 45.2%
O=C(/C=C/c1ccccc1)Nc1ccc(O)c(NC(=O)C2CC2)c1 : 42.6%
CC(=O)Nc1cc(NC(=O)/C=C/c2ccccc2)ccc1O : 40.2%

Give Neuraminidase (Influenza A virus) (UniProt B4URF0) inhibition for CC(C)C(=O)Nc1cc(NC(=O)/C=C/c2ccccc2)ccc1O
47.2%

---

target: Neuraminidase (Influenza A virus); experiment: Inhibition of Influenza A virus H1N1 A/duck/China/QJ/01 neuraminidase N1 using 4-MU-NANA as substrate after 5 mins by fluorescence assay
Form field: pIC50 (one value per entry).
// pIC50: -log10(molar conc.)

Consider the worked cases shown below.
CCC(=O)N[C@@H](CCCNC(=O)/C=C/c1ccc(O)c(O)c1)C(=O)O : 4.50
CCC(CC)C(=O)Nc1cc(NC(=O)/C=C/c2ccc(O)c(O)c2)ccc1OCC(=O)O : 5.07
CC(C)C(=O)Nc1cc(NC(=O)/C=C/c2ccc(O)c(O)c2)ccc1O : 4.72
O=C(O)COc1ccc(NC(=O)/C=C/c2ccc(O)c(O)c2)cc1NC(=O)C1CC1 : 4.86

Give Neuraminidase (Influenza A virus) pIC50 for O=C(/C=C/c1ccc(O)c(O)c1)NCCC[C@H](NC(=O)Cc1ccccc1)C(=O)O
4.52

Give Neuraminidase (Influenza A virus) pIC50 for CCC(CC)C(=O)N[C@@H](CCCNC(=O)/C=C/c1ccc(O)c(O)c1)C(=O)O
4.41

Give Neuraminidase (Influenza A virus) pIC50 for CC(C)(C)OC(=O)N[C@@H](CCCNC(=O)/C=C/c1ccc(O)c(O)c1)C(=O)O
4.46

Give Neuraminidase (Influenza A virus) pIC50 for CC(C)C(=O)Nc1cc(NC(=O)/C=C/c2ccc(O)c(O)c2)ccc1OCC(=O)O
4.94

---

assay: Cytotoxicity against chicken embryo fibroblast after 2 days by MTS assay; type: cell-based, Gallus gallus; conditions: chicken embryo fibroblasts
Form field: CC50 at 48 h (one value per entry).
Write the number in µM without appending the unit.

CC(=O)Nc1cc(NC(=O)/C=C/c2ccc(O)c(O)c2)ccc1OCC(=O)O : 60.4
O=C(/C=C/c1ccc(O)c(O)c1)N[C@@H](Cc1c[nH]c2ccccc12)C(=O)O : 89.5
O=C(/C=C/c1ccc(O)c(O)c1)NCCC[C@H](NC(=O)Cc1ccccc1)C(=O)O : 87.7

Would you kindly share the measured CC50 at 48 h for CC(=O)Nc1cc(NC(=O)/C=C/c2ccc(O)c(O)c2)ccc1O ?
78.2

Would you kindly share the measured CC50 at 48 h for O=C(O)COc1ccc(NC(=O)/C=C/c2ccc(O)c(O)c2)cc1NC(=O)C1CC1 ?
86.7

Would you kindly share the measured CC50 at 48 h for CC(C)C(=O)Nc1cc(NC(=O)/C=C/c2ccc(O)c(O)c2)ccc1OCC(=O)O ?
94.3

---

biological target: Neuraminidase (Influenza A virus, UniProt B4URF0); assay: Inhibition of Influenza A virus (A/chicken/Sandong/Li/2008(H9N2)) neuraminidase N2 using 4-MU-NANA as substrate after 5 mins by fluorescence assay
Form field: pIC50 (one value per entry).
// pIC50: -log10(molar conc.)

Consider the worked cases shown below.
CC(=O)Nc1cc(NC(=O)/C=C/c2ccc(O)c(O)c2)ccc1OCC(=O)O : 4.81
CC(C)(C)OC(=O)N[C@@H](CCCNC(=O)/C=C/c1ccc(O)c(O)c1)C(=O)O : 4.47
CC(C)C(=O)Nc1cc(NC(=O)/C=C/c2ccc(O)c(O)c2)ccc1OCC(=O)O : 4.89

Would you kindly share the measured pIC50 for CC(=O)Nc1cc(NC(=O)/C=C/c2ccc(O)c(O)c2)ccc1O ?
4.56

Would you kindly share the measured pIC50 for O=C(O)CCNC(=O)/C=C/c1ccc(O)c(O)c1 ?
4.87

---

Form field: IC50 (one value per entry).
biological target: Neuraminidase (Influenza A virus); experiment: Inhibition of Influenza A virus (A/chicken/Sandong/Li/2008(H9N2)) neuraminidase N2 using 4-MU-NANA as substrate after 5 mins by fluorescence assay
Write the number in µM without appending the unit.

CC(C)C(=O)Nc1cc(NC(=O)/C=C/c2ccc(O)c(O)c2)ccc1O : 20.4

Would you kindly share the measured IC50 for O=C(/C=C/c1ccc(O)c(O)c1)N[C@@H](Cc1c[nH]c2ccccc12)C(=O)O ?
27.2

Would you kindly share the measured IC50 for CCC(CC)C(=O)N[C@@H](CCCNC(=O)/C=C/c1ccc(O)c(O)c1)C(=O)O ?
44.2

---

target: Neuraminidase (Influenza A virus); assay: Inhibition of Influenza A virus (A/chicken/Sandong/Li/2008(H9N2)) neuraminidase N2 using 4-MU-NANA as substrate after 5 mins by fluorescence assay
Each record is given rule met if its reported IC50 is strictly below 20 µM. Records at or above 20 µM are given rule not met.

Does the reported IC50 of CCC(=O)Nc1cc(NC(=O)/C=C/c2ccc(O)c(O)c2)ccc1O stay below 20 µM?
rule not met

Does the reported IC50 of O=C(O)COc1ccc(NC(=O)/C=C/c2ccc(O)c(O)c2)cc1NC(=O)C1CC1 stay below 20 µM?
rule met

Does the reported IC50 of CCC(=O)N[C@@H](CCCNC(=O)/C=C/c1ccc(O)c(O)c1)C(=O)O stay below 20 µM?
rule not met

---

target: Neuraminidase (Influenza A virus); assay: Inhibition of Influenza A virus (A/chicken/Sandong/Li/2008(H9N2)) neuraminidase N2 using 4-MU-NANA as substrate after 5 mins by fluorescence assay
Form field: pIC50 (one value per entry).
// pIC50: -log10(molar conc.)

O=C(O)CCCNC(=O)/C=C/c1ccc(O)c(O)c1 : 4.77
O=C(/C=C/c1ccc(O)c(O)c1)N[C@@H](Cc1ccccc1)C(=O)O : 4.40

Would you kindly share the measured pIC50 for O=C(/C=C/c1ccc(O)c(O)c1)Nc1ccc(O)c(NC(=O)C2CC2)c1 ?
4.61
